Target: FXR (FXR HEK 293T DA cell line) (Homo sapiens)
Sequence (Q96RI1 with tags, fused parts or gaps limits assumed): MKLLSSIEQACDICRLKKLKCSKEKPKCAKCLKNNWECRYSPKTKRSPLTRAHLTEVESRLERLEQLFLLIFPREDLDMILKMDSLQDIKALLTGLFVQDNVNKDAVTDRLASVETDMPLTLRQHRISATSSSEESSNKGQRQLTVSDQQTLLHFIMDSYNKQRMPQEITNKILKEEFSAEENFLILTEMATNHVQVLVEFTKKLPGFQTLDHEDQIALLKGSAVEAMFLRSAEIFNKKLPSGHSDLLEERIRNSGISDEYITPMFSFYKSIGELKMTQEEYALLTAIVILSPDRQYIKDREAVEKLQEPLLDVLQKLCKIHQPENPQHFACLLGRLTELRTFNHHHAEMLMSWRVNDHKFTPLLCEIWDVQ
Assay: FXR cell experiment (β-lactamase reporter gene, GeneBLAzer)
Settings: FXR HEK 293T DA cells, β-lactamase reporter, 16 hours
endpoint: EC50 (nM)
Field: numeric (nM). Do not append units.

Solved entries:
{"compound": "CC[C@H]1[C@@H](O)[C@@H]2[C@H](CC[C@]3(C)[C@@H]([C@H](C)CCOc4cc(C(=O)O)ccn4)CC[C@@H]23)[C@@]2(C)CC[C@@H](O)C[C@@H]12", "value_units": "nM", "experimental_value": 140}
{"compound": "CC[C@H]1[C@@H](O)[C@@H]2[C@H](CC[C@]3(C)[C@@H]([C@H](C)CCCn4cc(C(=O)O)ccc4=O)CC[C@@H]23)[C@@]2(C)CC[C@@H](O)C[C@@H]12", "value_units": "nM", "experimental_value": 2500}

Moving on to another compound below.
IN: EC50 lookup needed for CC[C@H]1[C@@H](O)[C@@H]2[C@H](CC[C@]3(C)[C@@H]([C@H](C)CCN4CC(C(=O)O)CCC4=O)CC[C@@H]23)[C@@]2(C)CC[C@@H](O)C[C@@H]12 (stereo partly drawn) , thanks.
OUT: 17900

====

Molecular target: Glutathione-S-transferase-labeled FXR human protein (Homo sapiens, UniProt Q96RI1)
Construct: purchased Invitrogen
Sequence (Q96RI1 whole entry): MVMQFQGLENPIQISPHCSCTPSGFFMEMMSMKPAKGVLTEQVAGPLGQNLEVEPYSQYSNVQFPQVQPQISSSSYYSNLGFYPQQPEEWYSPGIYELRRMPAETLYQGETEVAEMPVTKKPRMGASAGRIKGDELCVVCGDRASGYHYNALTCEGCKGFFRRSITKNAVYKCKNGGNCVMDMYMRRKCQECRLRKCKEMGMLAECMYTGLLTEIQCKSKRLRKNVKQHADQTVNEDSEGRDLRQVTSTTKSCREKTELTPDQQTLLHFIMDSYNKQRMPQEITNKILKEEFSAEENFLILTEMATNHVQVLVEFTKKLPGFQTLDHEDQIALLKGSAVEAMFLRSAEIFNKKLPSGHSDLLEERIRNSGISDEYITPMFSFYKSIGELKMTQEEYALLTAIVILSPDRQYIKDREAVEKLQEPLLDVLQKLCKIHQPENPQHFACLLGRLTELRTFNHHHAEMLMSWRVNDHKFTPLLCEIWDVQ
Test: FXR biochemical experiment (AlphaScreen, coactivator recruitment)
Conditions: ratio of highest signal of the compound to that of the reference compound; read-out: FXR enzyme activity Efficacy
In this section, each of the compounds is paired with its reported Emax.
Field: numeric (%). Do not append units.

{"compound": "CC[C@H]1[C@@H](OC)[C@@H]2[C@H](CC[C@]3(C)[C@@H]([C@H](C)CCOCC45CC(C(=O)O)(C4)C5)CC[C@@H]23)[C@@]2(C)CC[C@@H](O)C[C@@H]12", "experimental_value": 195}
{"compound": "CC[C@H]1[C@@H](O)[C@@H]2[C@H](CC[C@]3(C)[C@@H]([C@H](C)CCOc4cnc(C(=O)O)nc4)CC[C@@H]23)[C@@]2(C)CC[C@@H](O)C[C@@H]12", "experimental_value": 240}
{"compound": "CC[C@@H]1C2C[C@H](O)CC[C@]2(C)[C@H]2CC[C@]3(C)[C@@H]([C@H](C)CCn4cc(C(=O)O)cn4)CC[C@H]3[C@@H]2[C@@H]1O (stereo partly drawn)", "experimental_value": 334}
{"compound": "CC[C@H]1[C@@H](O)[C@@H]2[C@H](CC[C@]3(C)[C@@H]([C@H](C)CCOc4ncc(C(=O)O)cc4Cl)CC[C@@H]23)[C@@]2(C)CC[C@@H](O)C[C@@H]12", "experimental_value": 248}
{"compound": "CC[C@H]1[C@@H](O)[C@@H]2[C@H](CC[C@]3(C)[C@@H]([C@H](C)CCOc4ccc(C(=O)NS(=O)(=O)c5ccccc5)cn4)CC[C@@H]23)[C@@]2(C)CC[C@@H](O)C[C@@H]12", "experimental_value": 204}

Moving on to another compound below.
IN: Emax lookup needed for CC[C@H]1[C@@H](O)[C@@H]2[C@H](CC[C@]3(C)[C@@H]([C@H](C)CCOc4cc(C(=O)O)ccn4)CC[C@@H]23)[C@@]2(C)CC[C@@H](O)C[C@@H]12 , thanks.
OUT: 407
